- TEST PROTOCOL: Half life in human liver S9 fraction
- Format: ADME, subcellular
Listed molecules paired with reported half-life

Some solved cases for reference:
[
  {
    "MOLECULE": "CC(C)Oc1nc(N)nc2c1ncn2[C@@H]1O[C@@H]2COP(=O)(OC(C)C)O[C@H]2[C@@]1(C)F (some centres undefined)",
    "OBS VALUE": "978 min"
  },
  {
    "MOLECULE": "CC(C)Oc1nc(N)nc2c1ncn2[C@@H]1O[C@@H]2COP(=O)(OC3CCCC3)O[C@H]2[C@@]1(C)F (some centres undefined)",
    "OBS VALUE": "> 1440 min"
  },
  {
    "MOLECULE": "CCOc1nc(N)nc2c1ncn2[C@@H]1O[C@@H]2COP(=O)(OC(C)C)O[C@H]2[C@@]1(C)F (some centres undefined) [PSI-352938]",
    "OBS VALUE": "> 1440 min"
  }
]

Could you now consider this next molecule?
Consider the molecule shown here: COc1nc(N)nc2c1ncn2[C@@H]1O[C@@H]2COP(=O)(OC(C)C)O[C@H]2[C@@]1(C)F (some centres undefined) What is its recorded half-life?
> 1440 min
